Origin of the recorded values: patent US6812226B2

Readout: melting point

smiles_code=O=C(c1ccccc1)c1ccc(N2CCC(N3C(=O)OCc4ccccc43)CC2)c([N+](=O)[O-])c1 value_measured="272 to 273 °C"
smiles_code=C#CC(C)(C)NC(=O)c1cnc(N2CCC(N3C(=O)OCc4ccccc43)CC2)c(Cl)c1 value_measured="135 to 138 °C"
smiles_code=O=C(O)c1ccccc1C(=O)c1ccc(N2CCC(N3C(=O)OCc4ccccc43)CC2)c([N+](=O)[O-])c1 value_measured="243 to 244 °C"
smiles_code=COC(=O)c1ccccc1C(=O)c1ccc(N2CCC(N3C(=O)OCc4ccccc43)CC2)c([N+](=O)[O-])c1 value_measured="177 to 179 °C"

Next compound, please.
Please look at this compound and report its melting point: "CC(C)C(=O)Nc1ccc(N2CCC(N3C(=O)OCc4ccccc43)CC2)c(Cl)c1"
228 °C

----------
Below: a set of entries, each annotated with reported melting point.

Consider the following illustrative entries.
compound=CC(C)NC(=O)c1cnc(N2CCC(n3c(=O)oc4ccccc43)CC2)c(Cl)c1 value_measured="162 to 168 °C"
compound=O=C(O)c1ccccc1C(=O)c1ccc(N2CCC(N3C(=O)CCc4ccccc43)CC2)c([N+](=O)[O-])c1 value_measured="201 to 203 °C"
compound=CN1CCC[C@H]1C(=O)Nc1ccc(N2CCC(N3C(=O)OCc4ccccc43)CC2)c(Cl)c1 value_measured="155 °C"
compound=CC(C)C[C@H](NC(=O)c1cnc(N2CCC(N3C(=O)OCc4ccccc43)CC2)c(Cl)c1)C(N)=O value_measured="139 to 142 °C"

Please look at this compound and report its melting point: N#CC(NC(=O)c1cnc(N2CCC(N3C(=O)OCc4ccccc43)CC2)c(Cl)c1)C(N)=O (centres unmarked)
159 to 162 °C

Please look at this compound and report its melting point: "CC(C)NS(=O)(=O)c1ccc(N2CCC(N3C(=O)OCc4ccccc43)CC2)c([N+](=O)[O-])c1"
168 °C

Please look at this compound and report its melting point: "CC(C)C[C@@H](NC(=O)c1cnc(N2CCC(N3C(=O)OCc4ccccc43)CC2)c(Cl)c1)C(N)=O"
139 to 142 °C

Please look at this compound and report its melting point: "O=C1OCc2ccccc2N1C1CCN(c2ccc(NCc3ncc[nH]3)cc2Cl)CC1"
222 to 224 °C

----------
Below: a set of entries, each annotated with reported melting point.

compound=CC(C)NC(=O)c1ccc(N2CCC(N3C(=O)OCc4ccccc43)CC2)c(C#N)c1 value_measured="200 °C"
compound=NC(=O)c1ccccc1C(=O)c1ccc(N2CCC(N3C(=O)OCc4ccccc43)CC2)c([N+](=O)[O-])c1 value_measured="180 to 182 °C"
compound="CC(CO)NC(=O)c1cnc(N2CCC(N3C(=O)OCc4ccccc43)CC2)c(Cl)c1 (stereo not shown)" value_measured="125 to 128 °C"
compound=CC(C)NC(=O)c1csc(N2CCC(N3C(=O)OCc4ccccc43)CC2)n1 value_measured="214 to 215 °C"
compound=CC(C)NC(=O)c1cnc(N2CCC(N3C(=O)OCc4ccccc43)CC2)nc1C(F)(F)F value_measured="217 to 219 °C"

Please look at this compound and report its melting point: "Nc1ccc(N2CCC(N3C(=O)OCc4ccccc43)CC2)c(Cl)c1"
158 °C

Please look at this compound and report its melting point: "COCCNC(=O)c1ccc(N2CCC(N3C(=O)OCc4ccccc43)CC2)c([N+](=O)[O-])c1"
192 to 193 °C

Please look at this compound and report its melting point: "CC(C)NC(=O)c1cnc(N2CC[C@H](N3C(=O)OCc4ccccc43)[C@@H](C)C2)c(Cl)c1.Cl"
195 °C

Please look at this compound and report its melting point: "CC(C)NC(=O)c1ccc(N2CCC(N3C(=O)OCc4ccccc43)CC2)c([N+](=O)[O-])c1"
193 to 195 °C

Please look at this compound and report its melting point: "CC(C)S(=O)(=O)Nc1ccc(N2CCC(N3C(=O)OCc4ccccc43)CC2)c(Cl)c1"
175 °C

Please look at this compound and report its melting point: "CC(C)[C@@H](NC(=O)c1cnc(N2CCC(N3C(=O)OCc4ccccc43)CC2)c(Cl)c1)C(N)=O"
140 to 143 °C

Please look at this compound and report its melting point: "CC(C)NC(=O)c1ccc(N2CCC(N3C(=O)OCc4ccccc43)CC2)c(S(C)(=O)=O)c1"
240 to 242 °C

Please look at this compound and report its melting point: "CC(C)NC(=O)c1cnc(N2CCC(N3C(=O)OCc4ccccc43)CC2)nc1"
236 to 239 °C

Please look at this compound and report its melting point: "CC(C)NC(=O)c1cnc(N2CCC(N3C(=O)COc4ccccc43)CC2)c(Cl)c1"
85 to 88 °C

Please look at this compound and report its melting point: "COC(=O)c1ccccc1C(=O)c1ccc(N2CCC(N3C(=O)OCc4ccc(Cl)cc43)CC2)c([N+](=O)[O-])c1"
90 to 92 °C

Please look at this compound and report its melting point: "CC(C)NC(=O)c1ccc(N2CCC(N3C(=O)OCc4ccccc43)CC2)nn1"
120 °C
